test: Half life in HIV-1 infected patient at 500 mg, po bid on day 1 by LC-MS/MS analysis; type: ADME, organism-based; conditions: human, in vivo
Assay readout: half-life (h)
All answers are understood in h, so give the number only.

Query :: # query: half-life of entry Nc1nc(N)c2ncn([C@H]3CO[C@@H](CO)O3)c2n1
Result :: 1.3

====

assay: Drug level in HIV-1 infected patient urine at 200 mg, po bid on day 10 coadministered with 500 mg, po bid amdoxovir by LC-MS/MS analysis; format: ADME, organism-based; conditions: human, read-out: Drug uptake
Assay readout: dose excreted (%)
Please state the figure in %; there is no need to write the unit.

Query :: For the compound Cc1cn([C@H]2C[C@H](N=[N+]=[N-])[C@@H](CO)O2)c(=O)[nH]c1=O , what dose excreted is on record?
Result :: 5.88

====

experiment: Tmax in HIV-1 infected patient at 200 mg, po bid on day 10 coadministered with 500 mg, po bid amdoxovir by LC-MS/MS analysis; type: ADME, organism-based; conditions: human, in vivo
Assay readout: Tmax (min)
Give the value, in units of min, as a plain number.

Query :: Can you share its Tmax? I mean this molecule: Cc1cn([C@H]2C[C@H](N=[N+]=[N-])[C@@H](CO)O2)c(=O)[nH]c1=O [ZIDOVUDINE]
Result :: 30

====

assay: AUC (0 to 12 hrs) in HIV-1 infected patient at 500 mg, po bid on day 10 coadministered with 300 mg, po bid zidovudine by LC-MS/MS analysis; assay type: ADME, organism-based; set-up: dose 500 mg, time < 12 hr, route oral; settings: human, plasma
Assay readout: AUC at 12 h (ng·h/mL)
Express the result in ng·h/mL but write the number alone.

Query :: Bench note: what AUC at 12 h did Nc1nc(N)c2ncn([C@H]3CO[C@@H](CO)O3)c2n1 [AMDOXOVIR] show?
Result :: 2090

====

experiment: Apparent oral clearance in HIV-1 infected patient on day 10 by LC-MS/MS analysis; type: ADME, organism-based; settings: human, in vivo
Assay readout: CL/F (mL/min/kg)
Provide only the numeric value, understood in mL/min/kg.

Query :: Item under review: Cc1cn([C@H]2C[C@H](N=[N+]=[N-])[C@@H](CO)O2)c(=O)[nH]c1=O . Reported CL/F?
Result :: 23.2

====

assay: Tmax in HIV-1 infected patient at 500 mg, po bid on day 10 coadministered with 200 mg, po bid zidovudine by LC-MS/MS analysis; type: ADME, organism-based; conditions: human, in vivo
Assay readout: Tmax (h)
All answers are understood in h, so give the number only.

Query :: Could you tell me which Tmax is on file for Nc1nc(N)c2ncn([C@H]3CO[C@@H](CO)O3)c2n1 [AMDOXOVIR] ?
Result :: 2.5

====

assay: Cmax in HIV-1 infected patient at 500 mg, po bid on day 1 by LC-MS/MS analysis; format: ADME, organism-based; set-up: dose 500 mg, route oral; conditions: human, in vivo
Assay readout: Cmax

Query :: Requested field: Cmax. Item: Nc1nc(N)c2ncn([C@H]3CO[C@@H](CO)O3)c2n1
Result :: 514 ng/mL

====

assay: Half life in HIV-1 infected patient at 500 mg, po bid on day 10 coadministered with 300 mg, po bid zidovudine by LC-MS/MS analysis; format: ADME, organism-based; settings: human, in vivo
Assay readout: half-life (h)
Just the number in h, nothing appended.

Query :: Need half-life of Nc1nc(N)c2ncn([C@H]3CO[C@@H](CO)O3)c2n1 [AMDOXOVIR] , thanks.
Result :: 1.1

====

assay: Cmax in HIV-1 infected patient at 500 mg, po bid on day 10 coadministered with 200 mg, po bid zidovudine by LC-MS/MS analysis; assay type: ADME, organism-based; parameters: dose 500 mg, route oral; details: human, in vivo
Assay readout: Cmax (ng/mL)
Express the result in ng/mL but write the number alone.

Query :: # query: Cmax of entry Nc1nc(N)c2ncn([C@H]3CO[C@@H](CO)O3)c2n1 [AMDOXOVIR]
Result :: 649

====

assay: Apparent oral clearance in HIV-1 infected patient at 300 mg, po bid on day 10 coadministered with 500 mg, po bid amdoxovir by LC-MS/MS analysis; assay type: ADME, organism-based; settings: human, in vivo
Assay readout: CL/F (mL/min/kg)
Number only, in mL/min/kg; omit the unit.

Query :: Given Cc1cn([C@H]2C[C@H](N=[N+]=[N-])[C@@H](CO)O2)c(=O)[nH]c1=O , state its recorded CL/F.
Result :: 30

====

assay: Cmax in HIV-1 infected patient at 500 mg, po bid on day 10 coadministered with 300 mg, po bid zidovudine by LC-MS/MS analysis; type: ADME, organism-based; design: dose 500 mg, route oral; conditions: human, in vivo
Assay readout: Cmax

Query :: May I ask what Cmax has been recorded for Nc1nc(N)c2ncn([C@H]3CO[C@@H](CO)O3)c2n1 ?
Result :: 714 ng/mL
